// data source = patent US20140206681A1

Test system: HeLa cells
Assay: [3H]Adenosine uptake functional cellular assay
Assay type: cell-based
Settings: Homo sapiens, HeLa, accumulation of [3H]adenosine into HeLa cells; compound range 10 μM to […]; read-out: Adenosine uptake inhibition IC50

{"columns": ["Compound", "Measurement target", "Value unit", "IC50"],
 "data": [
  ["Nc1nccn2c([C@H]3CC[C@H]4CCC(=O)N4C3)nc(-c3ccc(C(=O)Nc4cc(C(F)(F)F)ccn4)cc3)c12 [Example 10]", "HeLa cells", "nM", 1340],
  ["N#Cc1ccnc(NC(=O)c2ccc(-c3nc([C@@H]4CC[C@H]5CCC(=O)N5C4)n4ccnc(N)c34)c(F)c2)c1 [Example 15]", "HeLa cells", "nM", 71.9],
  ["Nc1ncc(F)n2c([C@@H]3CC[C@H]4CCC(=O)N4C3)nc(-c3ccc(C(=O)Nc4cc(C(F)(F)F)ccn4)cc3F)c12 [Example 166]", "HeLa cells", "nM", 296],
  ["CN1CC(=O)N2C[C@H](c3nc(-c4ccc(C(=O)Nc5cc(C(F)(F)F)ccn5)cc4)c4c(N)nccn34)CC[C@H]2C1 [Example 50]", "HeLa cells", "nM", 45.1],
  ["CC1CC(=O)N2C[C@H](c3nc(-c4ccc(C(=O)Nc5cc(C(F)(F)F)ccn5)cc4)c4c(N)nccn34)CC[C@@H]12 (stereo in doubt) [Example 65]", "HeLa cells", "nM", 132],
  ["CCOc1cc(C(=O)Nc2cc(C(F)(F)F)ccn2)ccc1-c1nc([C@@H]2CC[C@H]3CCC(=O)N3C2)n2c(Cl)cnc(N)c12 [Example 128]", "HeLa cells", "nM", 1160],
  ["C[C@H]1OC(=O)N2C[C@H](c3nc(-c4ccc(C(=O)Nc5cc(C(F)(F)F)ccn5)cc4)c4c(N)nccn34)CC[C@@H]12 [Example 49]", "HeLa cells", "nM", 51.8],
  ["CC(F)(F)c1cc(C(=O)Nc2cc(C(F)(F)F)ccn2)ccc1-c1nc([C@@H]2CC[C@H]3CCC(=O)N3C2)n2ccnc(N)c12 [Example 114]", "HeLa cells", "nM", 587],
  ["COc1cc(C(=O)Nc2ncc(C)s2)ccc1-c1nc([C@@H]2CC[C@H]3CCC(=O)N3C2)n2c(Cl)cnc(N)c12 [Example 203]", "HeLa cells", "nM", 1730],
  ["CC1(C)C[C@H]2CC[C@H](c3nc(-c4ccc(C(=O)Nc5cc(C(F)(F)F)ccn5)cc4)c4c(N)nccn34)CN2C1=O [Example 94]", "HeLa cells", "nM", 63.2],
  ["Cc1cnc(NC(=O)c2ccc(-c3nc([C@@H]4CC[C@H]5CCC(=O)N5C4)n4c(Cl)cnc(N)c34)c(Cl)c2)s1 [Example 196]", "HeLa cells", "nM", 741],
  ["COc1cc(C(=O)Nc2ccc(C)cn2)ccc1-c1nc([C@@H]2CC[C@H]3CCC(=O)N3C2)n2c(Cl)cnc(N)c12 [Example 210]", "HeLa cells", "nM", 1120],
  ["Nc1nccn2c([C@H]3CC[C@@H]4COCCN4C3)nc(-c3ccc(C(=O)Nc4cc(C(F)(F)F)ccn4)cc3)c12 [Example 56]", "HeLa cells", "nM", 114]
]}

---

Biological target: BTK enzyme (recombinant full-length BTK, hBTK) (Homo sapiens, UniProt Q06187)
Construct: recombinant protein from baculovirus-transfected Sf9 cells: full-length BTK, 6HIS-tag cleaved; 6HIS (cleaved yes); made in house; host or cells: baculovirus-transfected Sf9 cells
Sequence (Q06187 whole entry): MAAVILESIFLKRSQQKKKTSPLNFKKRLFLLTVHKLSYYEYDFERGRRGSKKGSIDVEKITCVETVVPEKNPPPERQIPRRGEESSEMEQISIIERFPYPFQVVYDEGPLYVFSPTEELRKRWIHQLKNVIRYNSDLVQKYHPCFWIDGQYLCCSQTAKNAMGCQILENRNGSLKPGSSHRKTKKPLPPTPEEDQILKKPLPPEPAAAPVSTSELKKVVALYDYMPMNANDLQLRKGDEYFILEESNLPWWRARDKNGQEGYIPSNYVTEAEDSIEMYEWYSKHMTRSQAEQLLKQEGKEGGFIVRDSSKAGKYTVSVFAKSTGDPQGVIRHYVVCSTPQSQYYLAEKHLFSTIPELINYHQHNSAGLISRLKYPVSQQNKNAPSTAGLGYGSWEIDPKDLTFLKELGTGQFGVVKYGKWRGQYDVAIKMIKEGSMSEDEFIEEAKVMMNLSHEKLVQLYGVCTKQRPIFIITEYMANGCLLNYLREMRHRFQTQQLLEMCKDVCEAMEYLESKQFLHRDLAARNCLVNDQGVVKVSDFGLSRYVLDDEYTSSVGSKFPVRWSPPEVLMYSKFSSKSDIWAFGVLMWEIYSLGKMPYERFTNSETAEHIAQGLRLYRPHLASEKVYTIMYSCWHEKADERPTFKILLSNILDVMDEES
Test: BTK enzyme activity assay, LANCE TR-FRET
Assay type: biochemical
Conditions: 50 pM hBTK, 2 μM biotin-A5-peptide, 25 μM ATP; 60 min compound & enzyme incubation; read-out: IC50 BTK activity value
pIC50: −log10 of the molar value.

{"columns": ["Compound", "pIC50"],
 "data": [
  ["CCOc1cc(C(=O)Nc2ncc(C)s2)ccc1-c1nc([C@@H]2CC[C@H]3CCC(=O)N3C2)n2ccnc(N)c12 [Example 159]", 9.20],
  ["CCOc1cc(C(=O)Nc2cc(C(F)(F)F)n(C)n2)c(F)cc1-c1nc([C@@H]2CC[C@H]3CCC(=O)N3C2)n2c(Cl)cnc(N)c12 [Example 115]", 9.17],
  ["COc1cc(C(=O)Nc2ncc(C)s2)ccc1-c1nc([C@@H]2CC[C@H]3CCC(=O)N3C2)n2ccnc(N)c12 [Example 202]", 8.28],
  ["Nc1ncc(F)n2c([C@@H]3CC[C@H]4CCC(=O)N4C3)nc(-c3ccc(C(=O)Nc4cc(C(F)(F)F)ccn4)cc3O)c12 [Example 165]", 8.64],
  ["CCOC(=O)c1oc(NC(=O)c2ccc(-c3nc([C@@H]4CC[C@H]5CCC(=O)N5C4)n4ccnc(N)c34)cc2)nc1C(F)(F)F [Example 184]", 6.81],
  ["Cn1nc(NC(=O)c2ccc(-c3nc([C@@H]4CC[C@H]5CCC(=O)N5C4)n4c(Cl)cnc(N)c34)cc2)cc1C(F)(F)F [Example 183]", 9.19],
  ["Nc1ncc(Cl)n2c([C@@H]3CC[C@H]4CCC(=O)N4C3)nc(-c3ccc(C(=O)Nc4cc(C5CC5)ccn4)cc3OC3CC3)c12 [Example 147]", 9.12],
  ["Nc1nccn2c([C@@H]3CC[C@H]4CCC(=O)N4C3)nc(-c3ccc(C(=O)Nc4cc(C(F)(F)F)ccn4)cc3O)c12 [Example 118]", 9.24],
  ["N#Cc1cc(C(=O)Nc2cc(C(F)(F)F)ccn2)ccc1-c1nc([C@@H]2CC[C@H]3CCC(=O)N3C2)n2ccnc(N)c12 [Example 123]", 8.20],
  ["COc1cc(C(=O)Nc2cc(C(F)(F)F)ccn2)cc(F)c1-c1nc([C@@H]2CC[C@H]3CC(C)(C)C(=O)N3C2)n2ccnc(N)c12 [Example 219]", 9.55],
  ["Nc1nccn2c([C@H]3CC[C@H]4CNCC(=O)N4C3)nc(-c3ccc(C(=O)Nc4cc(C(F)(F)F)ccn4)cc3)c12 [Example 57]", 9.55],
  ["Cn1nc(NC(=O)c2ccc(-c3nc([C@@H]4CC[C@H]5CCC(=O)N5C4)n4ccnc(N)c34)c(OC3CC3)c2)cc1C(F)(F)F [Example 146]", 9.23],
  ["Nc1nccn2c([C@@H]3CC[C@H]4CCC(=O)N4C3)nc(-c3ccc(C(=O)Nc4cc(C(F)(F)F)ccn4)cc3)c12 [Example 4]", 10.00]
]}

---

Target: BTK enzyme (recombinant full-length BTK, hBTK) (Homo sapiens, UniProt Q06187)
Construct: recombinant protein from baculovirus-transfected Sf9 cells: full-length BTK, 6HIS-tag cleaved; 6HIS (cleaved yes); made in house; host or cells: baculovirus-transfected Sf9 cells
Test: BTK enzyme activity assay, LANCE TR-FRET
Type: biochemical
Settings: 50 pM hBTK, 2 μM biotin-A5-peptide, 25 μM ATP; 60 min compound & enzyme incubation; read-out: IC50 BTK activity value
Readings of log10 of IC50 for the listed molecules
Observation type: log10 of IC50 (log10 of the value in nM)

{"columns": ["Molecule", "Val"],
 "data": [
  ["COc1cc(C(=O)Nc2cc(C(F)(F)F)ccn2)ccc1-c1nc([C@@H]2CC[C@H]3CCC(=O)N3C2)n2c(F)cnc(N)c12", 0.11],
  ["C[C@@H]1OC(=N)N2C[C@H](c3nc(-c4ccc(C(=O)Nc5cc(C(F)(F)F)ccn5)cc4)c4c(N)nccn34)CC[C@@H]12", 0.11],
  ["COc1cc(C(=O)Nc2cc(C(F)(F)F)ccn2)cc(F)c1-c1nc([C@@H]2CC[C@H]3CCC(=O)N3C2)n2c(F)cnc(N)c12", -0.40],
  ["Nc1nccn2c([C@@H]3CC[C@H]4CCC(=O)N4C3)nc(-c3ccc(C(=O)Nc4cc(OC5CC5)ccn4)cc3F)c12", -0.89],
  ["CC(O)c1ccnc(NC(=O)c2ccc(-c3nc([C@@H]4CC[C@H]5CCC(=O)N5C4)n4ccnc(N)c34)cc2)c1 (stereo partly drawn)", 0.99],
  ["NC(=O)c1cc(C(=O)Nc2cc(C(F)(F)F)ccn2)ccc1-c1nc([C@@H]2CC[C@H]3CCC(=O)N3C2)n2ccnc(N)c12", 2.54]
]}
